Please go through the items and note down their switch fluorescence ratio.
- Test system: ATP;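 also: ATP exposure 15 min at 22 °C before imaging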
- assay.comment: switch fluorescence ratio, 500 uM ATP over buffer (Cy3 cluster intensity, sum of 5 cycles each) (fold (ratio)); higher = stronger signal-on switching upon ATP binding; sequences stand for … in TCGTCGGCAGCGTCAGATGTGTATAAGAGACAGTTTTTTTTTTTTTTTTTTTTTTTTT…TC
- measurement.setup: aptamer strand: ATP DNA aptamer (quencher-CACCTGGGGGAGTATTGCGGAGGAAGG + anchor), 100 nM annealed; ATP concentration: 500 uM
API note: the answer field is a bare number with no unit suffix.

Endpoint output: switch fluorescence ratio of TGCGTAAAAT . Value? 1.01

Endpoint output: switch fluorescence ratio of TCCATAGTGA . Value? 1.26

Endpoint output: switch fluorescence ratio of GAGTAAGCAA . Value? 1.64

Endpoint output: switch fluorescence ratio of CTGGTGTGGA . Value? 1.03

Endpoint output: switch fluorescence ratio of CATGTTGAAG . Value? 0.986

Endpoint output: switch fluorescence ratio of CCGGGGTTTT . Value? 1.11

Endpoint output: switch fluorescence ratio of ATTGGGTAGT . Value? 0.976

Endpoint output: switch fluorescence ratio of ATCAAAGGGG . Value? 1

Endpoint output: switch fluorescence ratio of TGGGAGGCAA . Value? 1.16

Endpoint output: switch fluorescence ratio of GGCCACAGCA . Value? 1.07

Endpoint output: switch fluorescence ratio of TTGCATTTGG . Value? 1.01

Endpoint output: switch fluorescence ratio of ATAATGGGCA . Value? 0.983

Endpoint output: switch fluorescence ratio of CTAATCGCTG . Value? 1.05
